Items are presented alongside their recorded pIC50.
System: P388
assay info: Cytotoxicity against mouse P388 cells by MTT assay
Type: functional, cell-based
pIC50: −log10 of the molar value.
readout kind: pIC50

compound	system tested	readout kind	assay value
COc1cc(-c2ccc(O)c(O)c2)c(OC)c(O)c1-c1ccc(O)c(O)c1	P388	pIC50	5.04
COc1cc(-c2ccc(O)c(CC=C(C)C)c2)c(OC)c(O)c1-c1ccc(O)cc1 [PRENYLTERPHENYLLIN B]	P388	pIC50	4.90
COc1cc(-c2ccc(O)c(CC=C(C)C)c2)c(OC)c(O)c1-c1ccc(O)c(O)c1 [PRENYLTERPHENYLLIN A]	P388	pIC50	4.96

Numbers sourced from ChEMBL document CHEMBL1795281.
